biological target: hMAO A (Homo sapiens); construct: purchased Sigma-Aldrich (Milan, Italy); assay: Inhibition of human recombinant MAO A, spectrofluorimetric kynuramine assay; assay type: biochemical; conditions: read-out: % Inhibition at 10 μM hMAO A
Sequence (P21397 whole entry): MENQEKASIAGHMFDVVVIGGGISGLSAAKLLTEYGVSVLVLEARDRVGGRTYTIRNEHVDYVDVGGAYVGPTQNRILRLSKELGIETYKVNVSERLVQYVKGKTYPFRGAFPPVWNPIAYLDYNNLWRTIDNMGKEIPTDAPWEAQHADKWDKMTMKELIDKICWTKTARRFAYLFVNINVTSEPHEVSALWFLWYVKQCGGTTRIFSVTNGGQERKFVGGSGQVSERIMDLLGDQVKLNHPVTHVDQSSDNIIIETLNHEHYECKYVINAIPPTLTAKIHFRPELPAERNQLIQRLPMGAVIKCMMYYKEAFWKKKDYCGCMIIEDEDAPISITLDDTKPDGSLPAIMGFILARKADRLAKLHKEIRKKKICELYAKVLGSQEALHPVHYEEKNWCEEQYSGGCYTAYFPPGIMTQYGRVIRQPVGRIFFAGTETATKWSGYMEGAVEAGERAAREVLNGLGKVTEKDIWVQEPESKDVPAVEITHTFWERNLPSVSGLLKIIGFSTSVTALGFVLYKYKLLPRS

| Given smiles | System tested | inhibition at 10 µM / % |
| --- | --- | --- |
| COc1ccc([C@@H]2c3c(c4ccccc4oc3=O)O[C@H]2c2ccccc2S(C)(=O)=O)cc1 | hMAO A (Homo sapiens) | 45 |
| Cc1ccc([C@@H]2c3c(c4ccccc4oc3=O)O[C@H]2c2ccccc2S(C)(=O)=O)cc1 | hMAO A (Homo sapiens) | 47 |
| CS(=O)(=O)c1ccccc1[C@@H]1Oc2c(c(=O)oc3ccccc23)[C@H]1c1cccs1 | hMAO A (Homo sapiens) | 42 |
| CS(=O)(=O)c1ccccc1[C@@H]1Oc2c(c(=O)oc3ccccc23)[C@H]1c1ccc(Cl)cc1 | hMAO A (Homo sapiens) | 16 |

* * *

Each entry below carries its reported inhibition at 10 µM.
target: hBChE (Homo sapiens); construct: purchased Sigma-Aldrich (Milan, Italy); test: biochemical; format: biochemical; conditions: human BChE; 10 μM; mean ± SEM
Sequence (P06276 29-602): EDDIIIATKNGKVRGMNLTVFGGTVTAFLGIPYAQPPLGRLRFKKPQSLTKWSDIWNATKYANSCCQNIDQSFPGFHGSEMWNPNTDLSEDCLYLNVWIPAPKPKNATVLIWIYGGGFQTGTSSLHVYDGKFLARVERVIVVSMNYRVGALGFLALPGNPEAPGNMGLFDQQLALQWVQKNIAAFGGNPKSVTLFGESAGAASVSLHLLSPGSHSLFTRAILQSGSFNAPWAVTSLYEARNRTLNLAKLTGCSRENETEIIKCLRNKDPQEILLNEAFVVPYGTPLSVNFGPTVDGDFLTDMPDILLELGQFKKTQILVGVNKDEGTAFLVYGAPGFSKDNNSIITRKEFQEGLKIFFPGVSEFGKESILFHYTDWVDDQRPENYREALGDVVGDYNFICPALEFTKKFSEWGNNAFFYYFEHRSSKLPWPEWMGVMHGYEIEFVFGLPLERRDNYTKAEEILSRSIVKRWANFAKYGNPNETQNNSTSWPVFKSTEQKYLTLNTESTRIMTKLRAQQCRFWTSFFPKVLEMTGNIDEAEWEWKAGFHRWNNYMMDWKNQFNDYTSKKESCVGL

| Compound | Unit | Readout relation | inhibition at 10 µM |
| --- | --- | --- | --- |
| CS(=O)(=O)c1ccccc1[C@@H]1Oc2c(c(=O)oc3ccccc23)[C@H]1c1cccs1 [Compound 2d] | % | < | 5 |
| CS(=O)(=O)c1ccccc1[C@@H]1Oc2c(c(=O)oc3ccccc23)[C@H]1c1ccc(Cl)cc1 [Compound 2c] | % | < | 5 |
| COc1ccc([C@@H]2c3c(c4ccccc4oc3=O)O[C@H]2c2ccccc2S(C)(=O)=O)cc1 [Compound 2b] | % | = | 29 |
| CS(=O)(=O)c1ccccc1-c1oc2c(c1-c1cccs1)c(=O)oc1ccccc12 [Compound 3d] | % | = | 21 |
| Cc1ccc(-c2c(-c3ccccc3S(C)(=O)=O)oc3c2c(=O)oc2ccccc23)cc1 [Compound 3a] | % | < | 5 |
| Cc1ccc([C@@H]2c3c(c4ccccc4oc3=O)O[C@H]2c2ccccc2S(C)(=O)=O)cc1 [Compound 2a] | % | = | 27 |
| COc1ccc(-c2c(-c3ccccc3S(C)(=O)=O)oc3c2c(=O)oc2ccccc23)cc1 [Compound 3b] | % | = | 19 |

* * *

target: hAChE (Homo sapiens)
Sequence (P22303 32-614): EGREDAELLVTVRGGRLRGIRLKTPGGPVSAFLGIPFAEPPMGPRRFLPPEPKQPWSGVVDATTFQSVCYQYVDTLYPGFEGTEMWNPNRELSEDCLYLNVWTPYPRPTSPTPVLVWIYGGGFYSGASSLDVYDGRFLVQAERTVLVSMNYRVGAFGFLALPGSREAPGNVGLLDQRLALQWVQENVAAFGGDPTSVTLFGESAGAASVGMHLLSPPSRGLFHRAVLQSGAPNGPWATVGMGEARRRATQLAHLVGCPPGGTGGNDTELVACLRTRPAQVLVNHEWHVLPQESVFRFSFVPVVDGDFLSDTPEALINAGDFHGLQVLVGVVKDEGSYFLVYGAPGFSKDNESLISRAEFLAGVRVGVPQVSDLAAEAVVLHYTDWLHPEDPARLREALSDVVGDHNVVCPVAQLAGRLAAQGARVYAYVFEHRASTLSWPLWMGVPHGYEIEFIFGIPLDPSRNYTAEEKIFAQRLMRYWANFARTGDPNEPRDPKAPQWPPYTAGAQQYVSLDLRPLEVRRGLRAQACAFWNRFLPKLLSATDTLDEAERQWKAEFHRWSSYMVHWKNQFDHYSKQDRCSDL

| Compound | System tested | Ki [µM] |
| --- | --- | --- |
| CS(=O)(=O)c1ccccc1-c1oc2c(c1-c1cccs1)c(=O)oc1ccccc12 [Compound 3d] | hAChE (Homo sapiens) | 9.7 |

* * *

molecular target: hMAO B (Homo sapiens); construct: purchased Sigma-Aldrich (Milan, Italy); assay: Inhibition of human recombinant MAO B, spectrofluorimetric kynuramine assay; assay type: biochemical; details: read-out: % Inhibition at 10 μM hMAO B
Sequence (P27338 whole entry): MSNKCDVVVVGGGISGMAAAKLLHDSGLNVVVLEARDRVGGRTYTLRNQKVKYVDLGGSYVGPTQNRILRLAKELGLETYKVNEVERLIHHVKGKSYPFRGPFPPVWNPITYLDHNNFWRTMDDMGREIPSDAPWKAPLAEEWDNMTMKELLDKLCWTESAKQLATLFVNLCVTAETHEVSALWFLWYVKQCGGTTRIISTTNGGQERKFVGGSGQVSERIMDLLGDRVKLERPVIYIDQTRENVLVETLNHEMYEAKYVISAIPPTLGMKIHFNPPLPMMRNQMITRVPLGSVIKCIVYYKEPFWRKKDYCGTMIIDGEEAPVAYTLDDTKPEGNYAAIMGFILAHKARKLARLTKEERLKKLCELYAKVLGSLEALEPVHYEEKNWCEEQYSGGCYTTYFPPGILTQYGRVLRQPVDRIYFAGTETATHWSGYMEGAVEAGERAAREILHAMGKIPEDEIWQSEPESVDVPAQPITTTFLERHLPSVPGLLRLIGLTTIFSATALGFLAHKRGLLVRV
Measured inhibition at 10 µM, listed per entry for reference.

| Given smiles | inhibition at 10 µM / % |
| --- | --- |
| Cc1ccc([C@@H]2c3c(c4ccccc4oc3=O)O[C@H]2c2ccccc2S(C)(=O)=O)cc1 | 40 |
| CS(=O)(=O)c1ccccc1[C@@H]1Oc2c(c(=O)oc3ccccc23)[C@H]1c1cccs1 | 17 |
| COc1ccc([C@@H]2c3c(c4ccccc4oc3=O)O[C@H]2c2ccccc2S(C)(=O)=O)cc1 | 39 |
| CS(=O)(=O)c1ccccc1[C@@H]1Oc2c(c(=O)oc3ccccc23)[C@H]1c1ccc(Cl)cc1 | 11 |
